- TEST DETAILS: 4-week monkey GLP toxicity study, twice-weekly IV dosing (toxicity and toxicokinetics)
- Type: in vivo, monkeys
- CONDITION CONTEXT: in vivo, intravenous; monkey, 5 mg/kg; read-out: AUC0-∞ at HNSTD in monkeys
- Text: The 4-week multiple-dose GLP studies in rats and monkeys utilized twice-weekly IV dosing of peptide 1. The studies provided dose- and exposure-related assessments during both dosing and recovery periods, and results were utilized to define the maximum tolerated doses (MTD) and estimate the severely toxic dose for 10% (STD10) of rats and the highest non-severely toxic dose (HNSTD) in monkeys. […]
Where a SMILES comes first, the peptide text is derived from it. Bridges are numbered along the chain shown (N, C = ends). [ ]: non-standard residue; d: D form. R8 = C=CCCCCCC[C@@](C)(N)C(=O)O; S5 = C=CCCC[C@](C)(N)C(=O)O
MEASUREMENT LABEL: AUC(0-inf) (µg·h/mL)
Please reply with the bare figure in µg·h/mL and do not write the unit itself.

The measured AUC(0-inf) associated with CC(=O)N[C@@H](CC(C)C)C(=O)N[C@H](C(=O)N[C@@H](Cc1ccccc1)C(=O)N[C@]1(C)CCCCCC/C=C/CCC[C@@](C)(C(=O)N[C@@H](C)C(=O)N[C@@H](C)C(=O)N[C@@H](C)C(=O)N[C@@H](C)C(=O)N[C@@H](C)C(=O)N[C@H](C)C(N)=O)NC(=O)[C@H](CC(C)C)NC(=O)[C@H](CCC(N)=O)NC(=O)[C@H](C)NC(=O)[C@H](Cc2c[nH]c3ccccc23)NC(=O)[C@H](Cc2ccc(O)cc2)NC(=O)[C@H](CCC(=O)O)NC1=O)[C@@H](C)O [peptide 1] (Ac-LTF[R8]EYWAQL[S5]AAAAA[dA]-NH2; staple (E) 4-11) reads 813
